# assay: Foam appearance (color, odor, form)
# Type: physicochemical
# Set-up: key: No odor (N.O.)
# study.conditions: active agent in stock of propylene glycol 91, stearyl alcohol 2, Klucel EF 2, laureth-4 2, glyceryl monostearate/PEG 100 stearate 3 (second Example 29)
Structures can show the parent of a compound that is named as a salt.
metric: ODOR

- compound: "O=C(O)CCCCCCCC(=O)O [Azelaic acid]"
  data.value: "N.O"
- compound: "C/C(=C\\C(=O)OCCCCCCCCC(=O)O)C[C@@H]1OC[C@H](C[C@@H]2O[C@H]2[C@@H](C)[C@H](C)O)[C@@H](O)[C@H]1O [Mupirocin]"
  data.value: "N.O"
- compound: "C=C1/C(=C\\C=C2/CCC[C@]3(C)[C@@H]([C@H](C)/C=C/[C@@H](O)C4CC4)CC[C@@H]23)C[C@@H](O)C[C@@H]1O [Calcipotriol hydrate]"
  data.value: "N.O"
- compound: "O=C(OOC(=O)c1ccccc1)c1ccccc1 [Benzoyl peroxide]"
  data.value: "N.O"
- compound: "Cc1cc(C2CCCCC2)n(O)c(=O)c1 [Ciclopiroxolamine]"
  data.value: "N.O"
- compound: "CN(C/C=C/C#CC(C)(C)C)Cc1cccc2ccccc12 [Terbinafine HCl]"
  data.value: "No"
- compound: "O=C(O)c1ccccc1O [Salicylic acid]"
  data.value: "No"
- compound: "CN1C(C(=O)Nc2ccccn2)=C(O)c2ccccc2S1(=O)=O [Piroxicam]"
  data.value: "No"
- compound: "Nc1nc2c(ncn2COCCO)c(=O)[nH]1 [Acyclovir]"
  data.value: "N.O"
